- target.under.test: T1, human IL-23 (IL-23-His-Biotin, Akesobio, 20161209) (human, UniProt Q9NPF7 20-189; P29460 23-328)
- T1 construct: His-tagged and biotinylated; also called human IL23-His-Biotin
- T1 sequence (looked up) 1: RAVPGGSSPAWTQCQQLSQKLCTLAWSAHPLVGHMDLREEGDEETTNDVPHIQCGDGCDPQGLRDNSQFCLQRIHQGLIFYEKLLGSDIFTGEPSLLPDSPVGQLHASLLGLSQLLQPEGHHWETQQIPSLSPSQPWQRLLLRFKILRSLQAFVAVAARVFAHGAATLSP
- T1 sequence (looked up) 2: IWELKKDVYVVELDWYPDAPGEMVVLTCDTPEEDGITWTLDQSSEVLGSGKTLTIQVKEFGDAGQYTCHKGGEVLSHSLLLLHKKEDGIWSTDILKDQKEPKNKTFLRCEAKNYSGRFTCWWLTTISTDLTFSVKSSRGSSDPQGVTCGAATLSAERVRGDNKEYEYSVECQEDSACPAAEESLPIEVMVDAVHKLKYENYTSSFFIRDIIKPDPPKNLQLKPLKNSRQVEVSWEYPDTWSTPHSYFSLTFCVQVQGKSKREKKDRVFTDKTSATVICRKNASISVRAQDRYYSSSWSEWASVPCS
- test.method.notes: FACS competition, IL-23-His-Biotin 2 µg/mL on 293T-IL-12RB1&IL-23R cells, antibody 0.12 µg/mL
MFI listing for selected binders.
Please reply with the number alone, leaving off any unit.

binder	MFI
ustekinumab (trade name Stelara) (antibody, V domains shown) VH: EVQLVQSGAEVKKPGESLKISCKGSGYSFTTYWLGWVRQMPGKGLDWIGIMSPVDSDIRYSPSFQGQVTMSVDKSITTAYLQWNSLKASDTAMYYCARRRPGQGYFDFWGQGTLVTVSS VL: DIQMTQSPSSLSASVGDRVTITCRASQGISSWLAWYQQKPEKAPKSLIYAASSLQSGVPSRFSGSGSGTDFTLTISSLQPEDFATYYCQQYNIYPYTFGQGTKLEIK	211
H5L12 (antibody, human IgG1, kappa, V domains shown, IgG1/kappa) VH: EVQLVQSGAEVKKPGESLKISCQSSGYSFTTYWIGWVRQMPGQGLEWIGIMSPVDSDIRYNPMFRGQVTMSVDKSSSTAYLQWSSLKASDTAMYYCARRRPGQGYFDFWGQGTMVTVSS VL: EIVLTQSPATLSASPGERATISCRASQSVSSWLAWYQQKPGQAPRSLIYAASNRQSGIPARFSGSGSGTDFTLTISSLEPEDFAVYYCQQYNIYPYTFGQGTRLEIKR	211

Name the recorded MFI of the item H5L11 (antibody, human IgG1, kappa, V domains shown, IgG1/kappa) VH: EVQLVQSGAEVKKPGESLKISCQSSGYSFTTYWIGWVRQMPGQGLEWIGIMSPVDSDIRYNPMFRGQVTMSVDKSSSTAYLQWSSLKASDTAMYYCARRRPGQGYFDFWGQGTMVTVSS VL: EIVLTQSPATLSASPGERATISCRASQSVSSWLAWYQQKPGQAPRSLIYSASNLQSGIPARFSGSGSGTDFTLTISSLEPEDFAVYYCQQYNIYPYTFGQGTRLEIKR in your answer. 219
